biological target: recombinant human Cathepsin K (Homo sapiens (Human), UniProt P43235); test: Inhibition of human Cathepsin K; conditions: substrate Z-Gly-Pro-Arg-AMC
Sequence (P43235 115-329): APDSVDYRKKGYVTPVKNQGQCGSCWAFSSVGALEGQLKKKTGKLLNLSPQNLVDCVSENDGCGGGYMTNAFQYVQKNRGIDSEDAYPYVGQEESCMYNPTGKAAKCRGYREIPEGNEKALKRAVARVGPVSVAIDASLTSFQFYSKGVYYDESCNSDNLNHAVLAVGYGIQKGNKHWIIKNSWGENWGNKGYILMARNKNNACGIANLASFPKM
Each entry belongs to exactly one class, chosen by where its IC50 falls: lo = under 4 µM, mid = from 4 µM up to 7 µM, hi = 7 µM and over

As a guide, the following entries are already answered.
N#C[C@H](Cc1ccc(-c2ccsc2)cc1F)NC(=O)[C@H]1N[C@@H]2CC[C@H]1C2 [Example 18]: lo
CC(C)n1cc(-c2ccc(CC(C#N)NC(=O)[C@H]3N[C@@H]4CC[C@H]3C4)c(F)c2)cn1 (some centres unmarked) [Example 68]: hi
CN1C(=O)Cc2ccc(-c3ccc(C[C@@H](C#N)NC(=O)[C@H]4N[C@@H]5CC[C@H]4C5)c(Cl)c3)cc21 [Example 81]: mid
Cn1nc(C(F)(F)F)cc1-c1ccc(C[C@@H](C#N)NC(=O)[C@H]2N[C@@H]3CC[C@H]2C3)c(F)c1 [Example 100]: hi
N#C[C@H](Cc1ccc(-c2cccs2)cc1F)NC(=O)[C@H]1N[C@@H]2CC[C@H]1C2 [Example 36]: lo
N#C[C@H](Cc1ccc(-c2ccc3c(c2)NC(=O)C3)c(F)c1F)NC(=O)[C@H]1N[C@@H]2CC[C@H]1C2 [Example 181]: hi
N#C[C@@H](Cc1ccc(-c2ccc3ncsc3c2)cc1F)NC(=O)[C@H]1N[C@@H]2CC[C@H]1C2 [Example 45]: mid
Cc1n[nH]cc1-c1ccc(CC(C#N)NC(=O)[C@H]2N[C@@H]3CC[C@H]2C3)c(F)c1 (some centres unmarked) [Example 104]: hi

Problem: GET /class?item= N#C[C@H](Cc1ccc(-c2ccc(Cl)nc2)cc1F)NC(=O)[C@H]1N[C@H]2C[C@@H]1[C@@H]1C[C@@H]12 [Example 145]
Solution: hi

Problem: GET /class?item= CNc1nc2cc(-c3ccc(C[C@@H](C#N)NC(=O)[C@H]4N[C@@H]5CC[C@H]4C5)c(F)c3)ccc2n1C [Example 253]
Solution: mid
